Origin of values: patent EP4768484A1

Biological target: Ba/F3 BCR-ABL1 T315I (Homo sapiens, UniProt P00519+P11274, T315I)
Construct: BCR (N-terminal fusion partner of the oncoprotein)
Experiment: Cell growth inhibitory activity assay (CellTiter-Glo), Ba/F3 BCR-ABL1 T315I cells
Conditions: 72 h, CTG cell viability
Measured IC50, listed per entry for reference.

The cases that follow already have their IC50 on record.
{"Compound": "C[C@@H]1COCc2nc3cc(C(=O)Nc4ccc(OC(F)(F)Cl)cc4)cc(-c4cnc5c(c4)-c4nn(S(C)(=O)=O)cc4C5)c3n21", "Target entity": "Ba/F3 BCR-ABL1 T315I (Homo sapiens, UniProt P00519+P11274, T315I)", "IC50": "5 to 50 nM"}
{"Compound": "CC1(C)C(=O)Nc2cc(C(=O)Nc3ccc(OC(F)(F)Cl)cc3)cc(-c3cnc4c(c3)-c3nn(-c5ncc(F)cn5)cc3C4)c21", "Target entity": "Ba/F3 BCR-ABL1 T315I (Homo sapiens, UniProt P00519+P11274, T315I)", "IC50": "≤ 5 nM"}
{"Compound": "C[C@@H]1CCC(O)c2nc3cc(C(=O)Nc4ccc(OC(F)(F)Cl)cc4)cc(-c4cnc5c(c4)C(=O)N(C4CC4)C5)c3n21 (stereo partly shown)", "Target entity": "Ba/F3 BCR-ABL1 T315I (Homo sapiens, UniProt P00519+P11274, T315I)", "IC50": "50 to 1000 nM"}
{"Compound": "Cc1cnc(-n2cc3c(n2)-c2cc(-c4cc(C(=O)Nc5ccc(OC(F)(F)Cl)cc5)cc5nc6n(c45)[C@H](C)COC6)cnc2C3)nc1", "Target entity": "Ba/F3 BCR-ABL1 T315I (Homo sapiens, UniProt P00519+P11274, T315I)", "IC50": "≤ 5 nM"}
{"Compound": "Cn1ccc(-c2ccnc(-n3cc4c(n3)-c3cc(-c5cc(C(=O)Nc6ccc(OC(F)(F)Cl)cc6)cnc5N5CC[C@@H](F)C5)cnc3C4)n2)n1", "Target entity": "Ba/F3 BCR-ABL1 T315I (Homo sapiens, UniProt P00519+P11274, T315I)", "IC50": "≤ 5 nM"}
{"Compound": "CC(C)n1cc2c(n1)-c1cc(-c3cc(C(=O)Nc4ccc(OC(F)(F)Cl)cc4)cc4nc5n(c34)[C@H](C)COC5)ccc1C2", "Target entity": "Ba/F3 BCR-ABL1 T315I (Homo sapiens, UniProt P00519+P11274, T315I)", "IC50": "5 to 50 nM"}
{"Compound": "O=C(Nc1ccc(OC(F)(F)Cl)cc1)c1cc2c(c(-c3cnc4c(c3)-c3nn(-c5ncc(F)cn5)cc3C4)c1)C1(CCCCC1)C(=O)N2", "Target entity": "Ba/F3 BCR-ABL1 T315I (Homo sapiens, UniProt P00519+P11274, T315I)", "IC50": "≤ 5 nM"}
{"Compound": "CC(C)n1cnc2cc(C(=O)Nc3ccc(OC(F)(F)Cl)cc3)cc(-c3cnc4c(c3)-c3nn(-c5ncc(F)cn5)cc3C4)c21", "Target entity": "Ba/F3 BCR-ABL1 T315I (Homo sapiens, UniProt P00519+P11274, T315I)", "IC50": "≤ 5 nM"}

Here's the next entry for you.
Request: Returns the measured IC50 for the input compound. Input: O=C(Nc1ccc(OC(F)(F)Cl)cc1)c1cnc(N2CC[C@@H](F)C2)c(-c2cnc3c(c2)-c2nn(-c4ncc5ccsc5n4)cc2C3)c1
Result: ≤ 5 nM
